The reported numbers originate from patent US12697290B2.

# Procedure Text: Thiol recombination: reaction of test compound with cysteine reagent, conversion into mono- and bis-Michael-addition products monitored by LC-MS
# Condition Context: test solution 1 (pH=5.4); 0.05M, 30° C.; 30 min; mono
Listed here are compounds together with their documented Conversion at 30 min, mono-Michael-addition product (mono).
Property: Conversion at 30 min, mono-Michael-addition product (mono) (% mono)

O=C1C=CC(=O)N1CCOCCOCC12CC(COCCOCCN3C(=O)C=CC3=O)(C1)C2 ... 66
O=C1C=CC(=O)N1CCCOCC12CCC(COCCCN3C(=O)C=CC3=O)(CC1)CC2 ... 10
O=C1C=CC(=O)N1CCOCC12CC(COCCN3C(=O)C=CC3=O)(C1)C2 ... 0
O=C1C=CC(=O)N1CCCOCCOCCOCCCN1C(=O)C=CC1=O [Reference compound #1, reference compound] ... 0
O=C1C=CC(=O)N1CCCOCC12CC(COCCCN3C(=O)C=CC3=O)(C1)C2 ... 0

###

# Procedure Text: Thiol recombination: reaction of test compound with cysteine reagent, conversion into mono- and bis-Michael-addition products monitored by LC-MS
# Condition Context: test solution 1 (pH=5.4); 0.05M, 30° C.; 15 min; mono
# Description: N-Fmoc-cysteine (hereinafter C1) or N-Cbz-cysteine (hereinafter C2) were obtained by reduction of their cysteine counterparts via a literature known method. Adv. Syn. Catal., 2020, 362, 5093-5104. DOI: 10.1002/adsc.202000716. […] The tests were performed at ambient temperature of 30° C. under stirring with small magnetic stirrers in LC-MS vials or small glass vials (see picture 1). […] The reactions were monitored by LC-MS. […]
Property: Conversion at 15 min, mono-Michael-addition product (mono)

O=C1C=CC(=O)N1CCOCC12CC(COCCN3C(=O)C=CC3=O)(C1)C2 ... 0% mono
O=C1C=CC(=O)N1CCOCCOCC12CC(COCCOCCN3C(=O)C=CC3=O)(C1)C2 ... 47% mono
O=C1C=CC(=O)N1CCCOCC12CCC(COCCCN3C(=O)C=CC3=O)(CC1)CC2 ... 9% mono
O=C1C=CC(=O)N1CCCOCCOCCOCCCN1C(=O)C=CC1=O [Reference compound #1, reference compound] ... 0% mono
O=C1C=CC(=O)N1CCCOCC12CC(COCCCN3C(=O)C=CC3=O)(C1)C2 ... 0% mono

###

# Procedure Text: Thiol recombination: reaction of test compound with cysteine reagent, conversion into mono- and bis-Michael-addition products monitored by LC-MS
# Condition Context: test solution 1 (pH=5.4); 0.05M, 30° C.; 15 min; bis
Examples of compounds with documented Conversion at 15 min, bis-Michael-addition product (bis) follow.
Property: Conversion at 15 min, bis-Michael-addition product (bis) (% bis)

O=C1C=CC(=O)N1CCCOCCOCCOCCCN1C(=O)C=CC1=O [Reference compound #1, reference compound] ... 9
O=C1C=CC(=O)N1CCOCCOCC12CC(COCCOCCN3C(=O)C=CC3=O)(C1)C2 ... 24
O=C1C=CC(=O)N1CCCOCC12CCC(COCCCN3C(=O)C=CC3=O)(CC1)CC2 ... 29
O=C1C=CC(=O)N1CCCOCC12CC(COCCCN3C(=O)C=CC3=O)(C1)C2 ... 15
O=C1C=CC(=O)N1CCOCC12CC(COCCN3C(=O)C=CC3=O)(C1)C2 ... 17
